# Test system: MCF7
# TEST_DETAILS: Growth inhibition of human MCF7 cells after 48 hrs by sulforhodamine B assay
# Assay type: functional
# CONDITION_INFO: MCF7, 48 h
For each record, write down the corresponding GI50.
Give bare numbers, in nM.

                          chemical_string  recorded_value
0  N#C/C(=C\c1cc2ccccc2s1)c1ccc2c(c1)OCO2              90

Provide GI50 values for the following items, in order.
1. COc1ccc(/C(C#N)=C/c2ccc3c(c2)OCCO3)cc1
2. COc1ccc(/C=C(\C#N)c2ccc3c(c2)OCO3)c2ccccc12

Output line:
1: 3010; 2: 610

----------
# TEST_DETAILS: Growth inhibition of human UO31 cells at 10 uM after 48 hrs by sulforhodamine B assay
# Format: functional
# CONDITION_INFO: UO-31, 48 h, values are per cent of control
MEASURED_ATTRIBUTE: growth, % of control at 10 µM (%)
Give bare numbers, in %.

                            chemical_string             measured_attribute  unit_info  recorded_value
0  COc1cc(/C(C#N)=C/c2ccc3c(c2)OCCO3)cc(OC)c1OC  growth, % of control at 10 µM          %            23.9

# batch: return growth, % of control at 10 µM for each of the 4 compounds below
1. COc1ccc(/C(C#N)=C/c2ccc3c(c2)OCCO3)cc1
2. COc1cc(/C=C(\C#N)c2ccc3c(c2)OCO3)cc(OC)c1OC
3. N#C/C(=C\c1c(Cl)cccc1Cl)c1ccc2c(c1)OCO2
4. N#C/C(=C\c1ccsc1)c1ccc2c(c1)OCO2

Output line:
[73.2, 67.1, 80.1, 84.6]

Input line: Please give the measured growth, % of control at 10 µM for this compound: N#C/C(=C\c1ccc(Cl)c(Cl)c1)c1ccc2c(c1)OCO2
Output line: 73.7

----------
Could you please report measured growth, % of control at 10 µM for the items listed next?
# TEST_DETAILS: Growth inhibition of human Caki1 cells at 10 uM after 48 hrs by sulforhodamine B assay
# Format: functional
# CONDITION_INFO: CAKI-1, 48 h, values are per cent of control
Kindly report the value followed by its unit.

In [3]: df
Out[3]:
                            chemical_string  recorded_value
0  N#C/C(=C\c1ccc(Cl)c(Cl)c1)c1ccc2c(c1)OCO2           87.4%
1  COc1ccc(/C=C(\C#N)c2ccc3c(c2)OCO3)c(Cl)c1OC           79.3%
2  COc1cc(/C=C(\C#N)c2ccc3c(c2)OCO3)cc(OC)c1OC           86.6%
3   N#C/C(=C\c1c(Cl)cccc1Cl)c1ccc2c(c1)OCO2           83.2%
4   COc1ccc(/C=C(\C#N)c2ccc3c(c2)OCO3)cc1OC            102%

Consider the record given below.
Input line: Which growth, % of control at 10 µM is listed for N#C/C(=C\c1ccc2ccccc2n1)c1ccc2c(c1)OCO2 ?
Output line: 76%

----------
For each entry below, report its growth, % of control at 10 µM value.
# TEST_DETAILS: Growth inhibition of human SKOV3 cells at 10 uM after 48 hrs by sulforhodamine B assay
# Type: functional
# CONDITION_INFO: SK-OV-3, 48 h, values are per cent of control
One number for each entry, in %.

In [3]: df
Out[3]:
                            chemical_string             measured_attribute  recorded_value
0   COc1ccc(/C=C(\C#N)c2ccc3c(c2)OCO3)cc1OC  growth, % of control at 10 µM             105
1  COc1cc(/C=C(\C#N)c2ccc3c(c2)OCO3)cc(OC)c1OC  growth, % of control at 10 µM             103
2  COc1ccc(/C=C(\C#N)c2ccc3c(c2)OCO3)c(Cl)c1OC  growth, % of control at 10 µM            89.2

Input line: Please give the measured growth, % of control at 10 µM for this molecule: N#C/C(=C\c1ccc2ccccc2n1)c1ccc2c(c1)OCO2
Output line: 25.8

----------
# TEST_DETAILS: Growth inhibition of human DU145 cells after 48 hrs by sulforhodamine B assay
# Assay type: functional
# CONDITION_INFO: DU-145, 48 h
MEASURED_ATTRIBUTE: GI50 (µM)
Numbers only, in µM.

The examples below pair each entry with its known result.
In [3]: df
Out[3]:
                           chemical_string  recorded_value
0    COc1ccc(/C=C/c2cc(OC)c(OC)c(OC)c2)cc1            4.23
1  N#C/C(=C\c1cccc2ccccc12)c1ccc2c(c1)OCO2            6.94

Input line: Fill blank: measured GI50 of the compound COc1ccc(/C=C(\C#N)c2ccc3c(c2)OCO3)c(OC)c1 is ____.
Output line: 3.62

----------
# Test system: NCI-H322M
# TEST_DETAILS: Growth inhibition of human NCI-H322M cells at 10 uM after 48 hrs by sulforhodamine B assay
# Format: functional
# CONDITION_INFO: values are per cent of control
MEASURED_ATTRIBUTE: growth, % of control at 10 µM (%)
Answers are plain numbers, in %.

# example entries with known answers
>>> df
                            chemical_string  recorded_value
0   N#C/C(=C\c1ccc(Cl)cc1Cl)c1ccc2c(c1)OCO2            86.4
1     COc1ccc(/C=C(\C#N)c2ccc3c(c2)OCO3)cn1            98.3
2  COc1ccc(/C=C(\C#N)c2ccc3c(c2)OCO3)c(Cl)c1OC            97.8
3          N#C/C(=C\c1ccsc1)c1ccc2c(c1)OCO2            90.6
4   N#C/C(=C\c1cccc2ccccc12)c1ccc2c(c1)OCO2            90.5

For each entry beneath this line, provide reported growth, % of control at 10 µM.
1. N#C/C(=C\c1c(Cl)cccc1Cl)c1ccc2c(c1)OCO2
2. COc1cc(/C=C(\C#N)c2ccc3c(c2)OCO3)cc(OC)c1

Output line:
[102, 89.5]

Below is a list of compounds. For each, state its recorded growth, % of control at 10 µM.
1. COc1ccc(/C(C#N)=C/c2ccc3c(c2)OCCO3)cc1
2. COc1ccc(/C=C(\C#N)c2ccc3c(c2)OCO3)cc1
3. COc1ccc(/C=C(\C#N)c2ccc3c(c2)OCO3)c2ccccc12
4. N#C/C(=C\c1ccc(Cl)c(Cl)c1)c1ccc2c(c1)OCO2
5. N#C/C(=C\c1cc2ccccc2s1)c1ccc2c(c1)OCO2
6. COc1ccc(/C=C(\C#N)c2ccc3c(c2)OCO3)c(OC)c1

Output line:
1: 77.5; 2: 35.7; 3: 34.3; 4: 74.1; 5: 40.9; 6: 67.6

Hey, can you go through the list below and give me growth, % of control at 10 µM for every item?
1. COc1ccc(/C=C(\C#N)c2ccc3c(c2)OCO3)cc1OC
2. N#C/C(=C\c1ccc2ccccc2n1)c1ccc2c(c1)OCO2
3. N#C/C(=C\c1cc(F)cc(F)c1)c1ccc2c(c1)OCO2
4. COc1cc(/C(C#N)=C/c2ccc3c(c2)OCCO3)cc(OC)c1OC
5. N#C/C(=C\c1ccc2c(c1)OCO2)c1ccc2c(c1)OCO2

Output line:
1: 96.8; 2: 66.6; 3: 121; 4: 24.2; 5: 106

Input line: For the compound shown here, COc1cc(/C=C(\C#N)c2ccc3c(c2)OCO3)cc(OC)c1OC , give the reported growth, % of control at 10 µM.
Output line: 104

----------
Kindly supply the reported growth, % of control at 10 µM values for the records listed here.
# TEST_DETAILS: Growth inhibition of human Caki1 cells at 10 uM after 48 hrs by sulforhodamine B assay
# Format: functional
# CONDITION_INFO: CAKI-1, 48 h, values are per cent of control
Give bare numbers, in %.

In [3]: df
Out[3]:
                            chemical_string  recorded_value
0  COc1ccc(/C=C(\C#N)c2ccc3c(c2)OCO3)c2ccccc12            30.8

Quick request: growth, % of control at 10 µM for each listed item, please.
1. N#C/C(=C\c1ccc2c(c1)OCO2)c1ccc2c(c1)OCO2
2. N#C/C(=C\c1cccnc1Cl)c1ccc2c(c1)OCO2
3. N#C/C(=C\c1cc2ccccc2s1)c1ccc2c(c1)OCO2
4. N#C/C(=C\c1cc(Br)cc(Br)c1)c1ccc2c(c1)OCO2
5. N#C/C(=C\c1cc(F)cc(F)c1)c1ccc2c(c1)OCO2

Output line:
1. 66.8
2. 103
3. 41.2
4. 88.1
5. 94.2

Provide reported growth, % of control at 10 µM for each item, in the same order as listed.
1. N#C/C(=C\c1ccsc1)c1ccc2c(c1)OCO2
2. COc1ccc(/C=C(\C#N)c2ccc3c(c2)OCO3)c(OC)c1

Output line:
1. 97.3
2. 40

Values were extracted from ChEMBL document CHEMBL3792365.
